Origin of the recorded values: ChEMBL document CHEMBL3603820

# EXPERIMENT: Ratio of drug level in brain to plasma in mouse
# Assay type: ADME, organism-based
# CONDITION DESCRIPTION: read-out: BPR
MEASUREMENT NAME: Kp
Please reply with the number alone, leaving off any unit.

Record request: Kp value, item N#Cc1cccc(COc2ccc3c(c2Br)CN2C(=O)CN(C4CCCC4)C(=O)[C@H]2C3)c1 0.5

====

# EXPERIMENT: AUC (0 to t) in C57BL/6 mouse plasma at 1.81 mg/kg, po
# Type: ADME, organism-based
MEASUREMENT NAME: AUC(0-t)

Record request: AUC(0-t) value, item N#Cc1cccc(COc2ccc3c(c2)CN2C(=O)CN(C4CCCC4)C(=O)[C@H]2C3)c1 0.534 µg·h/mL
